# EXPERIMENTAL_DETAILS: Pharmacokinetics of methotrexate in minipig plasma after subcutaneous injection with autoinjector or needle/syringe
# CONDITION_DESCRIPTION: male, Gottingen, minipig, plasma, sc, […], T½; Syringe, Dose Level 12.5; individual animals

COMPOUND	half-life, h
CN(Cc1cnc2nc(N)nc(N)c2n1)c1ccc(C(=O)N[C@@H](CCC(=O)O)C(=O)O)cc1 [Methotrexate]	1.91
